# key: entry, value: normalized growth
Assay: chemical genetic growth profiling, strain panel (AID 1159580);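 note: tested at 20 µM; growth read once vehicle control cultures reached saturation at 30 °C; 1 = growth at the plate median or of vehicle wells; lower values mean less growth of the strain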
Conditions: S. cerevisiae deletion strains, growth OD, locus YLR320W, strain mms22, hits give low values
In all, about 5,500 compounds went through this assay and about 2,000 (36%) were called active. Inconclusive results (about 18%) are left out. This is one part of the list.

>  <compound>
CC(=O)/C(=C\c1ccccc1)CC(=O)O

>  <normalized growth>
0.971

$$$$
>  <compound>
C=CC(C1=CC(=O)C(OC)=CC1=O)c1ccc(O)cc1 (centres undefined)

>  <normalized growth>
0.988

$$$$
>  <compound>
COc1cccc(/C=C/C(=O)O)c1C(C)C

>  <normalized growth>
0.975

$$$$
>  <compound>
Nc1ccc([As](=O)(O)O)cc1

>  <normalized growth>
0.999

$$$$

Entry source: PubChem BioAssay AID1159580
